Every entry's value here was drawn from patent US11149035B2.

The molecules listed here are annotated with their IC50.
Test Target: haematopoietic prostaglandin D synthase (H-PGDS) (Homo sapiens)
Construct: Full length human H-PGDS cDNA (Invitrogen Ultimate ORF IOH13026) was amplified by PCR; 6-His (N); TEV protease cleavage site (N); made in house; host or cells: E. coli BL21 (DE3*)
Experimental Details: H-PGDS RapidFire high throughput mass spectrometry assay (conversion of PGH2 to PGD2)
Assay type: biochemical
Conditions: 10 nM H-PGDS, PGH2 formed in situ by COX-2 from arachidonic acid; four parameter curve fit; read-out: Potency Range (mean pIC50) (converted)

[
  {
    "Molecule": "O=C(N[C@H]1CCNC1=O)c1cnc2nc(N3CCC3)ccc2c1",
    "IC50": "0.01 to 0.0794 µM"
  },
  {
    "Molecule": "O=C(N[C@H]1CCNC1=O)c1cnc2nc(C3CC3)c(Cl)cc2c1",
    "IC50": "< 0.01 µM"
  },
  {
    "Molecule": "O=C(N[C@H]1CC[C@H](N[C@H](CO)C(F)(F)F)CC1)c1cnc2cc(C3CC3)ncc2c1",
    "IC50": "0.01 to 0.0794 µM"
  },
  {
    "Molecule": "CC(C)(O)C1CC2(CC(NC(=O)c3cnc4cc(C5CC5)ncc4c3)C2)C1 (racemic)",
    "IC50": "< 0.01 µM"
  }
]

* * *

Test Target: haematopoietic prostaglandin D synthase (H-PGDS) (Homo sapiens, UniProt O60760)
Construct: Full length human H-PGDS cDNA (Invitrogen Ultimate ORF IOH13026) was amplified by PCR; 6-His (N); TEV protease cleavage site (N); made in house; host or cells: E. coli BL21 (DE3*)
Sequence (O60760 whole entry): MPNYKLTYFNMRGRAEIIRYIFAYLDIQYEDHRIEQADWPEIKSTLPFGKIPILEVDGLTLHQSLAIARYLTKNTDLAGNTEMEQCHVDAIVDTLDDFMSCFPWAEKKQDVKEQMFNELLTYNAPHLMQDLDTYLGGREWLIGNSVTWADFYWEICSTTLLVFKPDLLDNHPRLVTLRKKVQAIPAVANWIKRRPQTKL
Experimental Details: H-PGDS RapidFire high throughput mass spectrometry assay (conversion of PGH2 to PGD2)
Format: biochemical
Conditions: 10 nM H-PGDS, PGH2 formed in situ by COX-2 from arachidonic acid; four parameter curve fit; read-out: Potency Range (mean pIC50) (converted)

[
  {
    "Sample Smiles": "CC(C)(O)[C@H]1CC[C@H](NC(=O)c2cnc3nc(NCC(F)F)ccc3c2)CC1",
    "IC50": "100 to 1000 nM"
  },
  {
    "Sample Smiles": "C[C@H]1CCN1c1cc2ncc(C(=O)NC3CCN(C(=O)C(C)(C)O)CC3)cc2cn1",
    "IC50": "10 to 79.4 nM"
  },
  {
    "Sample Smiles": "O=C(N[C@H]1CC[C@](O)(C(F)F)CC1)c1cnc2cc(C3CC3)ncc2c1",
    "IC50": "100 to 1000 nM"
  },
  {
    "Sample Smiles": "C[C@@H]1CCN1c1ccc2cc(C(=O)N[C@H]3CC[C@H](C(C)(C)O)CC3)cnc2n1",
    "IC50": "100 to 1000 nM"
  },
  {
    "Sample Smiles": "O=C(N[C@H]1CCNC1=O)c1cnc2cc(N3CCC3)ncc2c1",
    "IC50": "10 to 79.4 nM"
  },
  {
    "Sample Smiles": "CC(C)(O)[C@H]1CC[C@H](NC(=O)c2cnc3nc(C4CC4)c(Cl)cc3c2)CC1",
    "IC50": "< 10 nM"
  },
  {
    "Sample Smiles": "C[C@]1(O)CC[C@H](NC(=O)c2cnc3nc(C4CC4)c(Cl)cc3c2)CC1",
    "IC50": "< 10 nM"
  },
  {
    "Sample Smiles": "O=C(N[C@H]1CC[C@@](O)(C(F)F)CC1)c1cnc2cc(C3CC3)ncc2c1",
    "IC50": "100 to 1000 nM"
  }
]

* * *

Test Target: haematopoietic prostaglandin D synthase (H-PGDS) (Homo sapiens)
Construct: Full length human H-PGDS cDNA (Invitrogen Ultimate ORF IOH13026) was amplified by PCR; 6-His (N); TEV protease cleavage site (N); made in house; host or cells: E. coli BL21 (DE3*)
Experimental Details: H-PGDS RapidFire high throughput mass spectrometry assay (conversion of PGH2 to PGD2)
Type: biochemical
Conditions: 10 nM H-PGDS, PGH2 formed in situ by COX-2 from arachidonic acid; four parameter curve fit; read-out: Potency Range (mean pIC50) (converted)
The compounds listed here are annotated with their IC50.

[
  {
    "Compound": "CC(C)(O)[C@H]1CC[C@H](NC(=O)c2cnc3cc(C4CC4)ncc3c2)CC1 [Example 10]",
    "IC50": "10 to 79.4 nM"
  },
  {
    "Compound": "C[C@H]1CCN1c1nc2ncc(C(=O)N[C@H]3C[C@@](C)(O)C3)cc2cc1Cl [Example 63]",
    "IC50": "< 10 nM"
  },
  {
    "Compound": "COc1ccc2cc(C(=O)N[C@H]3CC[C@H](C(C)(C)O)CC3)cnc2n1 [Example 50]",
    "IC50": "10 to 79.4 nM"
  },
  {
    "Compound": "O=C(N[C@H]1C[C@](O)(C(F)(F)F)C1)c1cnc2nc(C3CC3)ccc2c1 [Example 53]",
    "IC50": "100 to 1000 nM"
  },
  {
    "Compound": "CC(C)(O)[C@H]1CC[C@H](NC(=O)c2cnc3cc(N4CC(F)C4)ncc3c2)CC1 [Example 3]",
    "IC50": "10 to 79.4 nM"
  },
  {
    "Compound": "C[C@]1(O)C[C@H](NC(=O)c2cnc3nc(C4CC4)ccc3c2)C1 [Example 46]",
    "IC50": "100 to 1000 nM"
  },
  {
    "Compound": "CC(C)(O)[C@H]1CC[C@H](NC(=O)c2cnc3ncccc3c2)CC1 [Example 2]",
    "IC50": "1260 to 10000 nM"
  },
  {
    "Compound": "C[C@H]1CCN1c1cc2ncc(C(=O)N[C@H]3C[C@@](C)(O)C3)cc2cn1 [Example 23]",
    "IC50": "100 to 1000 nM"
  },
  {
    "Compound": "C[C@]1(O)C[C@@H](NC(=O)c2cnc3nc(N4CCC4)ccc3c2)C1 [Example 18]",
    "IC50": "100 to 1000 nM"
  },
  {
    "Compound": "CC(C)(O)[C@H]1CC[C@H](NC(=O)c2cnc3nc(C4CC4)ccc3c2)CC1 [Example 21]",
    "IC50": "< 10 nM"
  },
  {
    "Compound": "CC(N[C@H]1CC[C@H](NC(=O)c2cnc3cc(C4CC4)ncc3c2)CC1)C(F)F (mixture of isomers) [Example 39]",
    "IC50": "10 to 79.4 nM"
  },
  {
    "Compound": "CC(C)(O)[C@H]1CC[C@H](NC(=O)c2cnc3cc(NC4CC4)ncc3c2)CC1 [Example 14]",
    "IC50": "10 to 79.4 nM"
  },
  {
    "Compound": "O=C(N[C@H]1C[C@@H](N[C@H](CO)C(F)(F)F)C1)c1cnc2cc(C3CC3)ncc2c1 [Example 42]",
    "IC50": "100 to 1000 nM"
  },
  {
    "Compound": "C[C@]1(O)CC[C@H](NC(=O)c2cnc3cc(C4CC4)ncc3c2)CC1 [Example 30]",
    "IC50": "100 to 1000 nM"
  },
  {
    "Compound": "CCOc1ccc2cc(C(=O)N[C@H]3CC[C@H](C(C)(C)O)CC3)cnc2n1 [Example 56]",
    "IC50": "10 to 79.4 nM"
  },
  {
    "Compound": "C[C@]1(O)C[C@H](NC(=O)c2cnc3cc(C4CC4)ncc3c2)C1 [Example 41]",
    "IC50": "100 to 1000 nM"
  },
  {
    "Compound": "C[C@H]1CCN1c1ccc2cc(C(=O)N[C@H]3CC[C@H](C(C)(C)O)CC3)cnc2n1 [Example 9]",
    "IC50": "< 10 nM"
  }
]

* * *

Test Target: haematopoietic prostaglandin D synthase (H-PGDS) (Homo sapiens, UniProt O60760)
Construct: Full length human H-PGDS cDNA (Invitrogen Ultimate ORF IOH13026) was amplified by PCR; 6-His (N); TEV protease cleavage site (N); made in house; host or cells: E. coli BL21 (DE3*)
Experimental Details: H-PGDS RapidFire high throughput mass spectrometry assay (conversion of PGH2 to PGD2)
Type: biochemical
Conditions: 10 nM H-PGDS, PGH2 formed in situ by COX-2 from arachidonic acid; four parameter curve fit; read-out: Potency Range (mean pIC50) (converted)

[
  {
    "Compound": "CC1CCN1c1cc2ncc(C(=O)N[C@H]3CC[C@H](C(C)(C)O)CC3)cc2cn1 (mixture of isomers)",
    "Test Target": "haematopoietic prostaglandin D synthase (H-PGDS) (Homo sapiens, UniProt O60760)",
    "IC50": "10 to 79.4 nM"
  },
  {
    "Compound": "C[C@]1(O)C[C@@H](NC(=O)c2cnc3cc(N4CCC4)ncc3c2)C1",
    "Test Target": "haematopoietic prostaglandin D synthase (H-PGDS) (Homo sapiens, UniProt O60760)",
    "IC50": "10 to 79.4 nM"
  },
  {
    "Compound": "C[C@H]1CCN1c1cc2ncc(C(=O)N[C@H]3CCNC3=O)cc2cn1",
    "Test Target": "haematopoietic prostaglandin D synthase (H-PGDS) (Homo sapiens, UniProt O60760)",
    "IC50": "10 to 79.4 nM"
  },
  {
    "Compound": "C[C@@H]1CNC(=O)[C@H]1NC(=O)c1cnc2nc(N3CC[C@@H]3C)c(Cl)cc2c1",
    "Test Target": "haematopoietic prostaglandin D synthase (H-PGDS) (Homo sapiens, UniProt O60760)",
    "IC50": "< 10 nM"
  },
  {
    "Compound": "O=C(N[C@H]1CC[C@H](N2CC(F)C2)CC1)c1cnc2cc(C3CC3)ncc2c1",
    "Test Target": "haematopoietic prostaglandin D synthase (H-PGDS) (Homo sapiens, UniProt O60760)",
    "IC50": "10 to 79.4 nM"
  }
]
